Data provenance is ChEMBL document CHEMBL4376896.

# assay: Half life in CD1 mouse liver microsomes at 1 uM
# Type: ADME, Microsome
property-label: half-life at 1 µM

{"compound": "CNC(=O)O[C@@H](CC(C)C)c1nc([C@H]2OC(=O)/C=C/C/C(C)=C/[C@@H](O)[C@@H](C)\\C=C(C)/C=C(C)\\C=C\\[C@@H](O)[C@H](C)[C@H](OC)/C(C)=C/C=C/[C@@H]2C)cs1 [ARCHAZOLID B]", "property-label": "half-life at 1 µM", "result": "2.8 min"}

---

# assay: Kinetic aqueous solubility of the compound
# Format: physicochemical
# test-context: buffer; read-out: Kinetic_solubility
property-label: solubility kinetic (µM)

{"structure-as-smiles": "CNC(=O)O[C@@H](CC(C)C)c1nc([C@H]2OC(=O)/C=C/C/C(C)=C/[C@@H](O)[C@@H](C)\\C=C(C)/C=C(C)\\C=C\\[C@@H](O)[C@H](C)[C@H](OC)/C(C)=C/C=C/[C@@H]2C)cs1", "result": 1.6}
